biological target: human PTK7 on non-engineered cells (human), Q13308; test: cell-based or functional assay
property: EC50, saporin (Fab-ZAP) cell killing, G401 Cells (pM)
Give your result in pM as a bare value.

Query: // Input: SC6.24 (antibody, V domains shown) VH: QVQLQQSGPEVVRPGVSVKISCKGSGYTFTDYAVHWVKLSHAKSLEWIGVISTYNDYTYNNQDFKGKATMTVDKSSSTAYMELARLTSEDSAIYYCARGNSYFYALDYWGQGTSVTVSS VL: DIVLTQSPASLAVSLGQRATISCRASESVDSYGKSFMHWYQQRPGQPPKLLIYRASNLESGIPARFSGSGSRTDFTLTINPVEADDVATYYCQQSNEDPWTFGGGTKLEIK . Output its EC50, saporin (Fab-ZAP) cell killing, G401 Cells only.
Response: 6.7
